Here the recorded fold induction at 0.3 µM is given for each entry.
# Tested on: T-cell
# assay-comment: CD25 cell surface staining on T-cells co-stimulated with anti-CD3 and anti-CD28 antibody (Biological Example 2)
# Assay type: cell-based, human
# test-context: Homo sapiens, T-cell, fold change over baseline; 0.3 μM Cbl-b inhibitor; primary human total T-cells; read-out: CD25 staining Anti-CD3/Anti-CD28 stimulation
measured-property: fold induction at 0.3 µM

> print(dat)
                           structure.smiles      reading
1  Cn1cnnc1CC1(c2cccc(NC(=O)c3cc(C4CC4)nc(C4CC4)n3)c2)COC1  1.01 to 1.3
2  C[C@H](Cc1nncn1C)c1cccc(NC(=O)c2cc(C3(O)COC3)cc(C(F)(F)F)n2)c1       > 1.76
3  C[C@H](Cc1nncn1C)c1cccc(NC(=O)c2nc3c(C4CC4)cccc3[nH]2)c1  1.01 to 1.3
4  C[C@H](Cc1nncn1C)c1cccc(NC(=O)c2cc(C3CC3)cc(C(F)(F)F)n2)c1  1.31 to 1.5
